Values were extracted from patent US9260425B2.

Test system: BaF3 PIM1 cells
Assay: In vitro cell proliferation potency assay, BaF3 line transfected with PIM-1 (Cell Titer Glo)
Assay type: cell-based, murine
Settings: Mus musculus, incubated overnight, read-out: Prolif. BaF3 PIM-1 (IC50)
Protocol: In Vitro Cell Proliferation Potency Assays BaF3 parental line was obtained from the DSMZ repository. […] Mouse IL-3 was purchased from R&D Systems. G418 was purchased from Clontech. […] BaF3, a murine interleukin-3 dependent pro-B cell line, parental cells, BaF3 PIM1 cells, BaF3 PIM-2 cells, and MM1.S (multiple myeloma) cells were seeded at 2 k/well, 5 k/well, 5 k/well, and 10 k/well respectively, in a 384-well plate, at 45 μL/well. […] IC50/EC50 values for the test compound were calculated.
For each record, write down the corresponding pIC50.
Answers are plain numbers, as −log10 of the molar value.

Examples with their reported pIC50 follow.
{"MOLECULE": "Cc1cncc(-c2cc3c(-c4cccc(N5CCNCC5)n4)n[nH]c3cn2)n1", "SYSTEM NAME": "BaF3 PIM1 cells", "pIC50": 7.40}
{"MOLECULE": "N[C@@H]1CCCN(c2cccc(-c3n[nH]c4cnc(-c5cncs5)cc34)n2)C1", "SYSTEM NAME": "BaF3 PIM1 cells", "pIC50": 6.73}
{"MOLECULE": "c1cc(-c2n[nH]c3cnc(-c4cnn(C5CCC5)c4)cc23)nc(N2CCNCC2)c1", "SYSTEM NAME": "BaF3 PIM1 cells", "pIC50": 7.23}
{"MOLECULE": "N[C@@H]1CCCN(c2cncc(-c3cc4c(-c5ccccc5F)n[nH]c4cn3)n2)C1", "SYSTEM NAME": "BaF3 PIM1 cells", "pIC50": 7.55}
{"MOLECULE": "NC1CCN(c2nc(-c3n[nH]c4cnc(-c5cccnc5)cc34)ccc2Cl)CC1", "SYSTEM NAME": "BaF3 PIM1 cells", "pIC50": 6.23}
{"MOLECULE": "N[C@H]1CCCN(c2cccc(-c3n[nH]c4cnc(-c5cccnc5)cc34)n2)C1", "SYSTEM NAME": "BaF3 PIM1 cells", "pIC50": 6.14}
{"MOLECULE": "C=Cc1ccc(-c2n[nH]c3cnc(-c4cccnc4)cc23)nc1N1CCC[C@H](N)C1", "SYSTEM NAME": "BaF3 PIM1 cells", "pIC50": 7.17}
{"MOLECULE": "N[C@H]1CCN(c2cncc(-c3cc4c(-c5ccccc5F)n[nH]c4cn3)c2)C1", "SYSTEM NAME": "BaF3 PIM1 cells", "pIC50": 6.80}
{"MOLECULE": "N[C@@H]1CCCN(c2cccc(-c3n[nH]c4cnc(-c5cccnc5)cc34)n2)C1", "SYSTEM NAME": "BaF3 PIM1 cells", "pIC50": 6.58}
{"MOLECULE": "N[C@H]1CCCN(c2cccc(-c3n[nH]c4cnc(-c5cccnc5)cc34)n2)CC1", "SYSTEM NAME": "BaF3 PIM1 cells", "pIC50": 6.47}

Record pIC50 for all entries; do not skip any.
1. Cn1cc(-c2cc3c(-c4ccc(Br)c(N5CCC[C@H](N)C5)n4)n[nH]c3cn2)cn1
2. NC1CCN(c2cncc(-c3cc4c(-c5ccccc5F)n[nH]c4cn3)n2)CC1
3. Cn1cc(-c2cc3c(-c4cccc(N5CCCC(C)(O)C5)n4)n[nH]c3cn2)cn1 (centres unmarked)
4. CC(C)Cn1cc(-c2cc3c(-c4cccc(N5CCNCC5)n4)n[nH]c3cn2)cn1

1: 7.51; 2: 6.43; 3: 6.96; 4: 6.89

###

// each record: one item and its Ki for Pim-1 (Homo sapiens (Human))

Below: 5 compounds and their reported Ki.
{"COMPOUND": "Fc1ccccc1-c1n[nH]c2cnc(-c3cnccc3OCC3CCNCC3)cc12 [Example 155]", "SYSTEM NAME": "Pim-1 (Homo sapiens (Human))", "Ki": "0.614 nM"}
{"COMPOUND": "CS(=O)(=O)c1cncc(-c2cc3c(-c4cccc(N5CCNCC5)n4)n[nH]c3cn2)c1 [Example 470]", "SYSTEM NAME": "Pim-1 (Homo sapiens (Human))", "Ki": "0.049 nM"}
{"COMPOUND": "c1ccc(-c2n[nH]c3cnc(-c4cn[nH]c4)cc23)cc1 [Example 137]", "SYSTEM NAME": "Pim-1 (Homo sapiens (Human))", "Ki": "4.61 nM"}
{"COMPOUND": "NC1CCN(Cc2n[nH]c3cnc(-c4cccnc4)cc23)CC1 [Example 106]", "SYSTEM NAME": "Pim-1 (Homo sapiens (Human))", "Ki": "1400 nM"}
{"COMPOUND": "Cn1cc(-c2cc3c(-c4ccnc(C5CCNCC5)n4)n[nH]c3cn2)cn1 [Example 439]", "SYSTEM NAME": "Pim-1 (Homo sapiens (Human))", "Ki": "0.571 nM"}

Can you give me Ki for all of these, one by one?
1. NC1CCN(C(=O)c2cccc(-c3n[nH]c4cnc(-c5cccnc5)cc34)n2)CC1 [Example 336]
2. CCn1cc(-c2cc3c(-c4cccc(N5C[C@@H](N)C[C@@H](F)C5)n4)n[nH]c3cn2)cn1 [Example 385]
3. FC1(c2cccc(-c3n[nH]c4cnc(-c5cccnc5)cc34)n2)CCNCC1 [Example 421]
4. NC(=O)Nc1cc2c(-c3cccc(N4CCC[C@H](N)C4)n3)n[nH]c2cn1 [Example 298]
5. CCn1cc(-c2cc3c(-c4cccc(N5CCC[C@H](NC)C5)n4)n[nH]c3cn2)cn1 [Example 377]
6. O=C1CN(c2cccc(-c3n[nH]c4cnc(-c5cccnc5)cc34)n2)CCCN1 [Example 322]
7. Cn1cc(-c2cc3c(-c4cccc(N5CCC(CN)CC5)n4)n[nH]c3cn2)cn1 [Example 182]

1. 12.7 nM
2. 0.131 nM
3. 0.105 nM
4. 14.1 nM
5. 0.08 nM
6. 0.322 nM
7. 0.085 nM

Each compound below has a recorded value; state its Ki.
1. Cc1n[nH]c2cnc(-c3cccnc3)cc12 [Example 101]
2. Fc1ccccc1-c1n[nH]c2cnc(-c3cnccc3OC3CCNCC3)cc12 [Example 195]
3. NC(=O)Cn1cc(-c2cc3c(-c4cccc(F)n4)n[nH]c3cn2)cn1 [Example 178]
4. CCn1cc(-c2cc3c(-c4cc(C5CC5)ccn4)n[nH]c3cn2)cn1 [Example 484]

190 nM
0.567 nM
17.6 nM
11.5 nM

Hi, could you look up Ki for each item in my list?
1. c1cncc(-c2cc3c(CNCC4CCNCC4)n[nH]c3cn2)c1 [Example 113]
2. CN1C(=O)CN(c2cc3c(-c4cccc(N5CCNCC5)n4)n[nH]c3cn2)C1=O [Example 371]

["3200 nM", "31.1 nM"]

###

Task for the reader: assign each of the following molecules its reported pKi.
biological target: Pim-1 (Homo sapiens (Human))
Sequence (P11309 whole entry): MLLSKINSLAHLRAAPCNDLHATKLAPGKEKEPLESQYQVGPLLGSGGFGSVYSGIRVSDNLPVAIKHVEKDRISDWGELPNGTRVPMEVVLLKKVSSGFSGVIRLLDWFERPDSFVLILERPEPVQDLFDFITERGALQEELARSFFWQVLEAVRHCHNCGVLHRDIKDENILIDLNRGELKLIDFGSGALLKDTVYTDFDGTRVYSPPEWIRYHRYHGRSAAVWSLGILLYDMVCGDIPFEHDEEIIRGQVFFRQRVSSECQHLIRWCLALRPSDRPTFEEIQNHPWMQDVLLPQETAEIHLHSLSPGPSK
Give bare numbers, as −log10 of the molar value.

Quick batch: pKi for everything below.
1. Cc1n[nH]c2cnc(-c3ccn[nH]3)cc12
2. N[C@@H]1CCCN(c2nc(-c3n[nH]c4cnc(-c5cccnc5)cc34)ccc2Cl)C1
3. N[C@H]1CCCN(c2cccc(-c3n[nH]c4cnc(-c5cccnc5)cc34)n2)CC1
4. Fc1ccccc1-c1n[nH]c2cnc(-c3cn[nH]c3)cc12
5. Cn1cc(-c2cc3c(-c4cccc(N[C@H]5CC[C@@H](N)CC5)n4)n[nH]c3cn2)cn1
6. CCn1cc(-c2cc3c(-c4cccc(N5CCC[C@H](N)C5)n4)n[nH]c3cn2)cn1
7. C1=C(c2n[nH]c3cnc(-c4cccnc4)cc23)CCCO1
8. Cn1cc(-c2cc3c(-c4cccc(N5CCC(N)CC5)n4)n[nH]c3cn2)cn1

5.89
10.22
10.32
8.06
10.40
10.51
7.54
10.07

// each molecule listed below needs its pKi
1. CCn1cc(-c2cc3c(-c4cccc(N5CCCCC(N)C5)n4)n[nH]c3cn2)cn1 (stereo not drawn)
2. CN1CCN(c2nc(-c3n[nH]c4cnc(-c5cccnc5)cc34)ccc2Cl)CC1
3. Cc1n[nH]c2cnc(-c3cncnc3)cc12
4. N[C@H]1CCCN(Cc2n[nH]c3cnc(-c4cn[nH]c4)cc23)C1
5. CC(C)(C)n1cc(-c2cc3c(-c4cccc(N5CCNCC5)n4)n[nH]c3cn2)cn1

10.09
9.95
5.46
5.52
9.42

Each of the following entries comes with a recorded value; kindly state pKi for each.
1. N[C@@H]1CCC[C@H](Nc2cccc(-c3n[nH]c4cnc(-c5cccnc5)cc34)n2)C1
2. NC(=O)Cc1cc2c(-c3cccc(N4CCNCC4)n3)n[nH]c2cn1

[9.52, 6.77]

For each entry beneath this line, provide reported pKi.
1. NC1CCN(c2cncc(-c3cc4c(-c5ccccc5F)n[nH]c4cn3)c2)CC1
2. O[C@@H]1CCCN(c2cccc(-c3n[nH]c4cnc(-c5cccnc5)cc34)n2)C1

[8.88, 10.14]

// query pKi value for entry Cc1n[nH]c2cnc(-c3cncc(N4CCC(N)CC4)n3)cc12
8.24
